# credit: patent US12344597B2

Listed below: pIC50 values for each entry.
- SYSTEM UNDER TEST: UniProtKB Q92633
- RUN DESCRIPTION: Beta-arrestin recruitment assay to determine IC50 values for human LPAR1
- PARTICULARS: antagonist mode, Tango EDG2-bla U2OS cells, LPA 18:1 500 nM final
pIC50: −log10 of the molar value.
METRIC: pIC50

{"columns": ["COMPOUND", "QUANTITATIVE RESULT"],
 "data": [
  ["Cc1ccc(NC(=O)C2(c3ccccc3C(C)C)CN(S(=O)(=O)CC(=O)O)C2)c(OC(F)F)n1 [Ex 13-1]", 8.15],
  ["Cc1ccc(NC(=O)C2(c3ccccc3C(C)C)CCNC2)c(OC(F)F)n1 (centres unmarked) [Ex 10]", 8.15],
  ["Cc1ccc(NC(=O)C2(c3ccccc3C(C)C)CN(C(=O)CCCc3nnn[nH]3)C2)c(OC(F)F)n1 [Ex 12-30]", 7.60],
  ["Cc1ccc(NC(=O)C2(c3ccccc3C(C)C)CN(C(=O)CN[C@@H](C)CO)C2)c(OC(F)F)n1 [Ex 12-59]", 8.00],
  ["COc1cnc(NC(=O)C2(c3ccccc3C(C)C)CN(S(N)(=O)=O)C2)c(OC)c1 [Ex 81-5]", 7.20],
  ["COC(=O)C(C)(C)CCN1CC(C(=O)Nc2ncc(Cl)cc2OC(F)F)(c2ccccc2C(C)C)C1 [Ex 78-1]", 6.34],
  ["COC(=O)[C@@H](NC(=O)N1CC(C(=O)Nc2ccc(C)nc2OC(F)F)(c2ccccc2C(C)C)C1)C(C)C [Ex 17-6]", 8.05],
  ["Cc1ccc(NC(=O)C2(c3ccccc3C(C)C)CN(c3ncncc3F)C2)c(OC(F)F)n1 [Ex 18-20]", 8.70]
]}

---

- SYSTEM UNDER TEST: human LPA1 receptor (Homo sapiens (Human))
- RUN DESCRIPTION: Beta-arrestin recruitment assay to determine IC50 values for human LPAR1
- PARTICULARS: antagonist mode, Tango EDG2-bla U2OS cells, LPA 18:1 500 nM final

{"columns": ["COMPOUND", "IC50 [nM]"],
 "data": [
  ["Cc1ccc(NC(=O)C2(c3ccccc3C(C)C)CN(C(=O)CCOCCOCC(=O)O)C2)c(OC(F)F)n1 [Ex 12-121]", 310],
  ["COC(=O)C1(OC(=O)N2CC(C(=O)Nc3ccc(C)nc3OC(F)F)(c3ccccc3C(C)C)C2)CC1 [Ex 14-7]", 79],
  ["Cc1ccc(NC(=O)C2(c3ccccc3C(C)C)CN(C(=O)CC3NCCNC3=O)C2)c(OC(F)F)n1 (stereo not shown) [Ex 12-46]", 556],
  ["CC(C)c1ccccc1C1(C(=O)Nc2cc(F)cnc2OC(F)F)CNC1 [Ex 8]", 338]
]}

---

- SYSTEM UNDER TEST: UniProt Q92633
- RUN DESCRIPTION: Beta-arrestin recruitment assay to determine IC50 values for human LPAR1
- PARTICULARS: antagonist mode, Tango EDG2-bla U2OS cells, LPA 18:1 500 nM final
pIC50: −log10 of the molar value.
Listed below: pIC50 values for each entry.
METRIC: pIC50

{"columns": ["MOLECULE", "QUANTITATIVE RESULT"],
 "data": [
  ["Cc1ccc(NC(=O)C2(c3ccccc3C(C)C)CN(S(=O)(=O)NC(C)C)C2)c(OC(F)F)n1", 7.60],
  ["Cc1ccc(NC(=O)C2(c3ccccc3C(C)C)CN(C(=O)CNOCc3ccccc3)C2)c(OC(F)F)n1", 8.22],
  ["CCOC(=O)/C=C\\C(=O)N1CC(C(=O)Nc2ccc(C)nc2OC(F)F)(c2ccccc2C(C)C)C1", 8.15],
  ["CCOC(=O)CN(C)CCN1CC(C(=O)Nc2ccc(C)nc2OC(F)F)(c2ccccc2C(C)C)C1", 7.06],
  ["CC(=O)NS(=O)(=O)N1CC(C(=O)Nc2ccc(C)nc2OC(F)F)(c2ccccc2C(C)C)C1", 7.16],
  ["Cc1ccc(NC(=O)C2(c3ccccc3C(C)C)CN(C(=O)CC3CCC(C(=O)O)CC3)C2)c(OC(F)F)n1 (stereo not shown)", 7.29],
  ["Cc1ccc(NC(=O)C2(c3ccccc3C3CCC3)CN(C(=O)CC(C)(C)C(=O)O)C2)c(OC(F)F)n1", 8.22]
]}

---

- SYSTEM UNDER TEST: human LPA1 receptor (Homo sapiens (Human))
- RUN DESCRIPTION: Beta-arrestin recruitment assay to determine IC50 values for human LPAR1
- PARTICULARS: antagonist mode, Tango EDG2-bla U2OS cells, LPA 18:1 500 nM final
pIC50: −log10 of the molar value. Counter-ions that a name gives are not always drawn.
Listed below: pIC50 values for each entry.
METRIC: pIC50

{"columns": ["COMPOUND", "SYSTEM UNDER TEST", "METRIC", "QUANTITATIVE RESULT"],
 "data": [
  ["CCOc1nc(C)ccc1NC(=O)C1(c2ccccc2C(C)C)CN(S(N)(=O)=O)C1 [Ex 15-17]", "human LPA1 receptor (Homo sapiens (Human))", "pIC50", 7.51],
  ["Cc1ccc(NC(=O)C2(c3ccccc3C(C)C)CN(Cc3ccc(C(=O)O)nc3)C2)c(OC(F)F)n1 [Ex 11-53]", "human LPA1 receptor (Homo sapiens (Human))", "pIC50", 6.94],
  ["CC(C)c1ccccc1C1(C(=O)Nc2ncc(Br)cc2OC(F)F)CNC1 [Ex 73]", "human LPA1 receptor (Homo sapiens (Human))", "pIC50", 8.00],
  ["COc1ccc(NC(=O)C2(c3ccccc3C(C)C)CNC2)c(OC)n1 [Ex 6, hydrochloride]", "human LPA1 receptor (Homo sapiens (Human))", "pIC50", 7.08],
  ["Cc1ccc(NC(=O)C2(c3ccccc3C(C)C)CN(S(=O)(=O)NCCF)C2)c(OC(F)F)n1 [Ex 15-4]", "human LPA1 receptor (Homo sapiens (Human))", "pIC50", 7.82],
  ["Cc1ccc(NC(=O)C2(c3ccccc3C(C)C)CN(Cc3cccc(C(=O)O)n3)C2)c(OC(F)F)n1 [Ex 11-46]", "human LPA1 receptor (Homo sapiens (Human))", "pIC50", 7.77],
  ["CCOC(=O)c1cn[nH]c1S(=O)(=O)N1CC(C(=O)Nc2ccc(C)nc2OC(F)F)(c2ccccc2C(C)C)C1 [Ex 13-24]", "human LPA1 receptor (Homo sapiens (Human))", "pIC50", 6.12]
]}

---

- SYSTEM UNDER TEST: human LPA1 receptor (Homo sapiens (Human))
- RUN DESCRIPTION: Beta-arrestin recruitment assay to determine IC50 values for human LPAR1
- PARTICULARS: antagonist mode, Tango EDG2-bla U2OS cells, LPA 18:1 500 nM final

{"columns": ["SMILES STRING", "IC50"],
 "data": [
  ["CCOC(=O)COCCN1CC(C(=O)Nc2ccc(C)nc2OC(F)F)(c2ccccc2C(C)C)C1", "28 nM"],
  ["COC(=O)c1cc(S(=O)(=O)N2CC(C(=O)Nc3ccc(C)nc3OC(F)F)(c3ccccc3C(C)C)C2)on1", "25 nM"],
  ["COc1nc(Cl)ccc1NC(=O)C1(c2ccccc2C(C)C)CN(C(=O)CCC(=O)O)C1", "60 nM"]
]}

---

Listed below: pIC50 values for each entry.
- SYSTEM UNDER TEST: human LPA1 receptor (Homo sapiens (Human), UniProt Q92633)
- Sequence (Q92633 whole entry): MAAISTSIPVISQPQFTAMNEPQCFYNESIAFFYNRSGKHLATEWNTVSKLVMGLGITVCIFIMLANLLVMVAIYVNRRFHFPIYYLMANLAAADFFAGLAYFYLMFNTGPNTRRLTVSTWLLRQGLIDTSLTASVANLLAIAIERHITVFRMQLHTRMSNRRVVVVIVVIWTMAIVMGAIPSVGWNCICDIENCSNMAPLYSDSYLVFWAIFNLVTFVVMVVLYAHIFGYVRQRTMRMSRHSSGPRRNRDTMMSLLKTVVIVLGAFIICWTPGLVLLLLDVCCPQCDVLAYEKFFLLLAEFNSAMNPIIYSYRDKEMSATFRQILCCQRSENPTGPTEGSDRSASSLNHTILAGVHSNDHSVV
- RUN DESCRIPTION: Beta-arrestin recruitment assay to determine IC50 values for human LPAR1
- PARTICULARS: antagonist mode, Tango EDG2-bla U2OS cells, LPA 18:1 500 nM final
pIC50: −log10 of the molar value.
METRIC: pIC50

{"columns": ["COMPOUND", "METRIC", "QUANTITATIVE RESULT"],
 "data": [
  ["CCOC(=O)c1coc(N2CC(C(=O)Nc3cccnc3OC(F)F)(c3ccccc3C(C)C)C2)n1", "pIC50", 7.15],
  ["Cc1ccc(NC(=O)C2(c3ccccc3C3CC3)CN(C(=O)CC(C)(C)C(=O)O)C2)c(OC(F)F)n1", "pIC50", 7.72],
  ["Cc1ccc(NC(=O)C2(c3ccccc3C(C)C)CN(C(=O)C3C4CC3(C(=O)O)C4)C2)c(OC(F)F)n1 (stereo not shown)", "pIC50", 7.55],
  ["Cc1ccc(NC(=O)C2(c3ccccc3C(C)C)CN(C(=O)CN(C)CC(=O)O)C2)c(OC(F)F)n1", "pIC50", 7.74],
  ["COC(=O)c1cnc(N2CC(C(=O)Nc3ccc(C)nc3OC(F)F)(c3ccccc3C(C)C)C2)nc1", "pIC50", 7.51],
  ["Cc1ccc(NC(=O)C2(c3ccccc3C(C)C)CN(c3nc(C(=O)O)co3)C2)c(OC(F)F)n1", "pIC50", 8.22],
  ["COCCN(CC(=O)OC)CC(=O)N1CC(C(=O)Nc2ccc(C)nc2OC(F)F)(c2ccccc2C(C)C)C1", "pIC50", 7.16],
  ["Cc1ccc(NC(=O)C2(c3ccccc3C(C)C)CN(S(=O)(=O)c3cn[nH]c3C(=O)O)C2)c(OC(F)F)n1", "pIC50", 7.00],
  ["Cc1ccc(NC(=O)C2(c3ccccc3C(C)C)CN(C(=O)N[C@H](C)C(=O)O)C2)c(OC(F)F)n1", "pIC50", 7.07],
  ["Cc1ccc(NC(=O)C2(c3ccccc3C(C)C)CN(C(=O)CCOCCOCCO)C2)c(OC(F)F)n1", "pIC50", 6.44],
  ["Cc1ccc(NC(=O)C2(c3ccccc3C(C)C)CN(C(=O)CCC(C)(C)C(=O)O)C2)c(OC(F)F)n1", "pIC50", 7.72],
  ["COC(=O)C(C)(C)CC(=O)N1CC(C(=O)Nc2ccc(C)nc2OC(F)F)(c2ccccc2C(C)C)C1", "pIC50", 7.47],
  ["COC(=O)C1(CNC(=O)N2CC(C(=O)Nc3ccc(C)nc3OC(F)F)(c3ccccc3C(C)C)C2)CC1", "pIC50", 8.15],
  ["Cc1ccc(NC(=O)C2(c3ccccc3C(C)C)CN(c3ccnc(C)n3)C2)c(OC(F)F)n1", "pIC50", 8.52],
  ["Cc1cnc(NC(=O)C2(c3ccccc3C(C)C)CN(C(=O)CC(C)(C)C(=O)O)C2)c(OC(F)F)c1", "pIC50", 6.70],
  ["COC(=O)c1cnc(N2CC(C(=O)Nc3ccc(C)nc3OC(F)F)(c3ccccc3C(C)C)C2)n1C", "pIC50", 7.52],
  ["Cc1ccc(NC(=O)C2(c3ccccc3C(C)C)CN(Cc3ncco3)C2)c(OC(F)F)n1", "pIC50", 7.39],
  ["Cc1ccc(NC(=O)C2(c3ccccc3C(C)C)CCN(C(=O)Cc3c[nH]nc3O)CC2)c(OC(F)F)n1", "pIC50", 8.40],
  ["Cc1ccc(NC(=O)C2(c3ccccc3C(C)C)CN(CCCC3(C(=O)O)CC3)C2)c(OC(F)F)n1", "pIC50", 8.15]
]}
